Every entry's value here was drawn from PubChem BioAssay (NCATS).

System: Zika virus NS2B-NS3 protease
Assay: Primary screen GU AMC qHTS for Zika virus inhibitors (AID 1347154); also: nearly all actives have a fitted effect of over 70% in size
Details: Zika NS2B-NS3 unlinked protease, AMC fluorogenic substrate; series mostly up to 54.1 µM
Results filed as inconclusive are left out. Activity calls are given as the source filed them. Calls follow the shape of the dose curve; as a rule, active = well fitted inhibition curve with a large enough effect; inconclusive = small, poorly fitted or top-dose-only effect; inactive = flat fitted curve, though single readings scatter.
Outcome field: choose from true (active), false (inactive)

INSERT INTO measurements (compound, tested_target, class) VALUES
  ('CC[C@H](CO)Nc1nc(NCc2ccccc2)c2ncn(C(C)C)c2n1', 'Zika virus NS2B-NS3 protease', 'false');

Q. GET /call?item= Nc1ccccc1NC(=O)c1ccc(CNc2nccc(-c3cccnc3)n2)cc1 returns the recorded outcome of this test.
A. false

Q. Look up the recorded call for O=C(NC1CCNCC1)c1[nH]ncc1NC(=O)c1c(Cl)cccc1Cl in this test.
A. false

Q. Hello, I am checking results. What call was entered for COc1cc2ncn(-c3cc(OCc4ccccc4C(F)(F)F)c(C(N)=O)s3)c2cc1OC ?
A. false

Q. Outcome logged for Clc1cccc(-n2nnnc2NCc2ccccc2Oc2ccccn2)c1Cl in this assay:
A. false

Q. What call does the record list for COc1c(OCCCN2CCOCC2)ccc2c3n(c(=NC(=O)c4cnc(N)nc4)nc12)CCN3 ?
A. false

---

Experiment: Quantitative High-Throughput drug screen in 47 multiple myeloma cell lines against the NCATS MIPE library collection: NCIH929_DSMZ cell viability assay (AID 1918978); also: nearly all actives have a fitted effect of over 35% in size
Details: NCI-H929 myeloma viability, CellTiter-Glo ATP, 48 h; series mostly up to 45.8 µM
Records with an inconclusive call do not appear. Calls of active or inactive are those of the source. Calls follow the shape of the dose curve; as a rule, active = well fitted cell-killing curve with a large enough effect; inconclusive = small, poorly fitted or top-dose-only effect; inactive = no such curve, though single readings can be large or run the other way.
Just give me one of these, please: active, inactive

INSERT INTO assay_data (structure_smiles_string, class) VALUES
  ('CCC1=C[C@@H]2CN(C1)Cc1c([nH]c3ccccc13)[C@@](C(=O)OC)(c1cc3c(cc1OC)N(C)[C@@H]1[C@@](O)(C(=O)OC)[C@H](OC(C)=O)[C@]4(CC)C=CCN5CC[C@]31[C@@H]54)C2', 'active'),
  ('C[C@@H](Oc1cc(-c2cnn(C3CCNCC3)c2)cnc1N)c1c(Cl)ccc(F)c1Cl', 'active'),
  ('CC(C)c1ccccc1Cc1cc(C(=O)Nc2ccc(S(=O)(=O)c3ccccc3C(C)(C)C)cc2)c(O)c(O)c1O', 'active'),
  ('COc1c(OCCCN2CCOCC2)ccc2c3n(c(=NC(=O)c4cnc(N)nc4)nc12)CCN3', 'active'),
  ('Cc1nc2cnc3ccc(C#Cc4cccnc4)cc3c2n1-c1ccc(C(C)(C)C#N)cc1', 'active');

Q. Status in this test for COc1ccc(-n2nc(C(N)=O)c3c2C(=O)N(c2ccc(N4CCCCC4=O)cc2)CC3)cc1 ?
A. inactive

---

Test: qHTS Screen of the MIPE 4.0 Collection Against Ewings Sarcoma (RDES) (AID 1259252); also: nearly all actives have a fitted effect of over 35% in size; also: potency is read from the fitted curve at half-maximal effect
Settings: RD-ES Ewing sarcoma viability, CellTiter-Glo, 48 h; series mostly up to 45.8 µM
Records with an inconclusive call do not appear. The source made the active and inactive calls. Calls follow the shape of the dose curve; as a rule, active = well fitted inhibition curve with a large enough effect; inconclusive = small, poorly fitted or top-dose-only effect; inactive = no such curve, though single readings can be large or run the other way.
readout label: Potency

Consider the following illustrative entries.
INSERT INTO results (molecule, readout_label, recorded_result) VALUES
  ('C=C1C(=CC=C2CCC[C@]3(C)[C@@H]([C@H](C)C=C[C@H](C)C(C)C)CC[C@@H]23)C[C@@H](O)C[C@@H]1O', 'Potency', '0.332 µM (active)'),
  ('CNc1nccc(-c2cccnc2Oc2cc(C(=O)Nc3cccc(C(F)(F)F)c3)ccc2C)n1', 'Potency', '4.18 µM (active)'),
  ('O=C(O)C1(Cc2cccc(Nc3nccs3)n2)CCC(Oc2cccc(Cl)c2F)CC1 (stereo unspecified)', 'Potency', '4.69 µM (active)'),
  ('COc1cc2c(Oc3ccc(-c4cnc(Nc5ccc(F)cc5)n(C)c4=O)cc3F)ccnc2cc1OCCCN1CCOCC1', 'Potency', '20.9 µM (active)'),
  ('C[C@H]1C[C@@H]2[C@@H]([C@@H](O)C[C@@]3(C)[C@H]2CC[C@]3(O)C(=O)CO)[C@@]2(C)C=CC(=O)C=C12', 'Potency', 'inactive');

Q. Quick one: Potency for CN(C)Cc1c(C(=O)NCCOc2ccc(C(=O)NO)cc2)oc2ccccc12 ?
A. 1.05 µM (active)

Q. Give its Potency value. Item: O=C(Nc1cn[nH]c1-c1nc2ccc(CN3CCOCC3)cc2[nH]1)NC1CC1
A. 3.72 µM (active)

Q. Looking for the measured Potency of CCC[C@H](NC(=O)C(C#N)=Cc1cccc(Br)n1)c1ccccc1 , can you help?
A. 7.43 µM (active)

Q. # query: Potency of entry CCN(CC)CCCCNc1ncc2cc(-c3cc(OC)cc(OC)c3)c(NC(=O)NC(C)(C)C)nc2n1
A. 20.9 µM (active)

Q. Which Potency reading was recorded for the molecule CC1(C)CC(=O)c2c(C(F)(F)F)nn(-c3ccc(C(N)=O)c(NC4CCC(OC(=O)CN)CC4)c3)c2C1 (stereo unspecified) ?
A. 0.166 µM (active)

Q. So what's the measured Potency for this one? COc1cc(Nc2ncc(F)c(Nc3ccc4c(n3)N(COP(=O)(O)O)C(=O)C(C)(C)O4)n2)cc(OC)c1OC
A. 11.8 µM (active)

Q. Which Potency value is on record for CCCn1c(=O)c2[nH]c(-c3cnn(Cc4cccc(C(F)(F)F)c4)c3)nc2n(CC)c1=O ?
A. inactive

Q. Can you look up the measured Potency of Fc1cc(-c2cccc3ncc(-c4cnn(C5CCNCC5)c4)nc23)cc(F)c1CN1CCOCC1 for me?
A. 20.9 µM (active)

Q. Name the reported Potency value associated with the molecule Cc1cn2cc(C(=O)N(C)CCO)cc(N[C@@H]3CCOc4cccc(C)c43)c2n1
A. inactive

Q. Item Cn1c(CNc2ccc(C(=N)N)cc2)nc2cc(C(=O)N(CCC(=O)O)c3ccccn3)ccc21 has what recorded Potency?
A. inactive

Q. Item Cc1cc(CN2CCN(c3c(Br)cnc4nc(-c5ccc(N6CCN(C)CC6)cc5)[nH]c34)CC2)no1 has what recorded Potency?
A. 14.8 µM (active)

---

Experiment: Quantitative High-Throughput drug screen in 47 multiple myeloma cell lines against the NCATS MIPE library collection: KMS27_JCRB cell viability assay (AID 1918970); also: nearly all actives have a fitted effect of over 30% in size
Settings: KMS27 myeloma cells, CellTiter-Glo ATP viability, 48 h; series mostly up to 45.8 µM
Records with an inconclusive call do not appear. The source made the active and inactive calls. Calls come from the whole dose curve; as a rule, active = well fitted cell-killing curve with a large enough effect; inconclusive = small, poorly fitted or top-dose-only effect, or effect the other way; inactive = no such curve, though single readings can be large or run the other way.
Reply using exactly one outcome from Y for active, N for inactive

Some entries whose results are on file:
INSERT INTO assay_data (molecule, class) VALUES
  ('COc1c(N2C[C@@H]3CCCN[C@H]3C2)c(F)cc2c(=O)c(C(=O)O)cn(C3CC3)c12', 'Y'),
  ('CCC[C@H](NC(=O)C(C#N)=Cc1cccc(Br)n1)c1ccccc1', 'Y'),
  ('NC(=O)c1c(OCc2c(F)cc(Br)cc2F)nsc1NC(=O)NCCCCN1CCCC1', 'N'),
  ('CNC(=O)c1ccc(N2C(=S)N(c3cnc(C#N)c(C(F)(F)F)c3)C(=O)C23CCC3)cc1F', 'Y');

Q. What was the test verdict on Cc1cnc(-c2cnc(NCCNc3ccc(C#N)cn3)nc2-c2ccc(Cl)cc2Cl)[nH]1 ?
A. N

Q. Test call for this molecule, please: COc1ccc(-n2nc(C(N)=O)c3c2C(=O)N(c2ccc(N4CCCCC4=O)cc2)CC3)cc1
A. N

Q. Tell me the recorded outcome of this test for Nc1ccccc1NC(=O)c1ccc(CNC(=O)OCc2cccnc2)cc1 .
A. Y

Q. Could you kindly confirm the outcome this assay logged for COc1c(OCCCN2CCOCC2)ccc2c3n(c(=NC(=O)c4cnc(N)nc4)nc12)CCN3 ?
A. Y

Q. Just curious, what result did Cn1cc(-c2[nH]c3cc(NC(=O)[C@H](N)C4CCCCC4)cc4c3c2C=NNC4=O)cn1 get here?
A. Y

Q. Called result for Cn1c(CNc2ccc(C(=N)N)cc2)nc2cc(C(=O)N(CCC(=O)O)c3ccccn3)ccc21
A. N

Q. What classification did COc1ccc(CC2SC(=O)NC2=O)cc1C(=O)NCc1ccc(C(F)(F)F)cc1 (stereo not given) end up with in this test?
A. N

Q. Recorded test call requested for CC(C)Nc1cc(C(F)(F)F)cc2nc(NC(=O)c3cccnc3)nn12
A. N

Q. Per the records of this test, what outcome belongs to O=C(c1ccc(Nc2nccc(-c3cc4ccccc4s3)n2)cc1)N1CCC(N2CCCC2)CC1 ?
A. Y

Q. So what was the verdict on NC1(Cc2ccc(Cl)cc2)CCN(c2ncnc3[nH]ccc23)CC1 in this test?
A. Y

Q. Each molecule tested received a call. Report the one for Cc1cn2cc(C(=O)N(C)CCO)cc(N[C@@H]3CCOc4cccc(C)c43)c2n1 .
A. N

Q. Assay result, entry CCNC(=O)Nc1ccc2ncc(Nc3ccc(C)cc3)nc2n1 — outcome?
A. Y

Q. // return assay outcome for CNC(=O)CN1CCC(Oc2cc3c(Nc4cccc(Cl)c4F)ncnc3cc2OC)CC1
A. Y

Q. # outcome recorded in this test, key = COc1cc2nccc(Oc3ccc(NC(=O)C4(C(=O)Nc5ccc(F)cc5)CC4)cc3)c2cc1OC
A. Y

Q. Record request — test call for Cc1ccc(-c2ncn(-c3ccc(Nc4nccc(-c5cccc(N6CCOCC6)c5)n4)cc3)n2)cn1
A. Y

Q. Hi team, can someone confirm the assay call for CNc1nccc(-c2cccnc2Oc2cc(C(=O)Nc3cccc(C(F)(F)F)c3)ccc2C)n1 ?
A. Y
